Cited source for all entries: patent US20250230155A1

For each record, write down the corresponding EC50.
Target: human mAChR M4 (Homo sapiens, UniProt P08173)
Construct: expressed in transfected cells
Sequence (P08173 whole entry): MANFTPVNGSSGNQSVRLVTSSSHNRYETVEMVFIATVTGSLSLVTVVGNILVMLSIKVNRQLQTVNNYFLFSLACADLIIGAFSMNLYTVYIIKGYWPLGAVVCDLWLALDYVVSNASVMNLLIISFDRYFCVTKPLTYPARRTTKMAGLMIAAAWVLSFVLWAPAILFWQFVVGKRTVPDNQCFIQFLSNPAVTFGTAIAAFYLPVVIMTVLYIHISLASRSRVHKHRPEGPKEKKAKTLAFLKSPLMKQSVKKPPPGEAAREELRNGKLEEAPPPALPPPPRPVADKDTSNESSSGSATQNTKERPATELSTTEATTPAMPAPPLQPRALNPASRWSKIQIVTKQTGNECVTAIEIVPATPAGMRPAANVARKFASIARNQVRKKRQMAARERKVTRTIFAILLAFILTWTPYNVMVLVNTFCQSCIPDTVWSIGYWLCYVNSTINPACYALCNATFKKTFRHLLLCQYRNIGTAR
Experiment: mAChR M4 cell-based functional assay (calcium mobilization, CHO-K1 hM4-Gqi5 cells)
Conditions: positive allosteric modulator activity, increase in the EC20 acetylcholine response, CHO-K1 hM4-Gqi5 cells; read-out: Human M4 EC50

Cc1cc(C(=O)NC2CCCCC2)cnc1N1CCc2ncccc2C1 :: ≥ 10 µM

Please look at the items below and tell me EC50 for each one, in order.
1. Cc1nc(C(=O)N2CCOCC2)c(C)c(N2CCc3ncc(C(F)(F)F)cc3C2)n1
2. Cc1cnc2c(c1)CN(c1nnc(C#N)c(C)c1C)CC2
3. Cc1nn(C)cc1-c1cnc2c(c1)CN(c1nc(N3CCOCC3)nc(C)c1C)CC2

result:
["≥ 10 µM", "3.65 µM", "0.896 µM"]
